- study target: Plasmepsin V (Plasmodium falciparum (isolate 3D7)) (UniProt Q8I6Z5)
- Sequence (Q8I6Z5 whole entry, looked up): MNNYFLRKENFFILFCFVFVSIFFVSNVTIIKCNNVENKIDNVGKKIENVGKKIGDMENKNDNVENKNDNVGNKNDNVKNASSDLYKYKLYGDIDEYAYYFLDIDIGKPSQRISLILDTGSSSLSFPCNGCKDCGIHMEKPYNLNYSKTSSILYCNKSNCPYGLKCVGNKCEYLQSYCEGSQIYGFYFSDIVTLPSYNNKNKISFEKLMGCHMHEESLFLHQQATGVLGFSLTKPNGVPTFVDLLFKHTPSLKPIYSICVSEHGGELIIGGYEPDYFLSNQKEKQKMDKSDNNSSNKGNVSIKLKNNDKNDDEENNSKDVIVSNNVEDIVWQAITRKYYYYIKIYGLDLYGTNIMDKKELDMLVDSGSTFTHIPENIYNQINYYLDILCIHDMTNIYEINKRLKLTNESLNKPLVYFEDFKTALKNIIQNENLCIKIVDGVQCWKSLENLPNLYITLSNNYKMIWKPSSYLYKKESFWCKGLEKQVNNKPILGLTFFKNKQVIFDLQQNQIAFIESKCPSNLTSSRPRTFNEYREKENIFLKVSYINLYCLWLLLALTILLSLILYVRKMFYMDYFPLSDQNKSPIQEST
- measurement protocol: Inhibition of PMV in trophozoite stage of Plasmodium flaciparum 3D7 expressing PfEMP3-GFP infected in human erythrocytes assessed as PEXEL processing of PfEMP3 at 20 uM after 5 hrs by Western blot method
- Format: cell-based
- applied conditions: Plasmodium falciparum 3D7
Active and inactive are the calls of the source. The calls are words filed in the database; no cut-off is given here.
value type: inhibition

mol=CC(=N)NCCC[C@H](NC(=O)OCc1ccccc1)C(=O)N[C@H](C(=O)N[C@@H](CC(C)C)[C@@H](O)CC(=O)NCCc1ccccc1)C(C)C value_reported=inactive
mol=CC(C)C[C@H](NC(=O)[C@@H](NC(=O)[C@H](CCCNC(=N)NO)NC(=O)OCc1ccccc1)C(C)C)[C@@H](O)CC(=O)NCCc1ccccc1 value_reported=inactive
mol=CC(C)C[C@H](NC(=O)[C@@H](NC(=O)[C@H](CCONC(=N)N)NC(=O)OCc1ccccc1)C(C)C)[C@H](O)CC(=O)NCCc1ccccc1 value_reported=inactive
